Listing of IC50 toward Wee1-like protein kinase (Homo sapiens), each taken from a published source.
MEASUREMENT_NAME: IC50 (nM)

CC1CNCCN1c1ccc(Nc2ncc3c(n2)OCN(c2c(Cl)cccc2Cl)C3=O)cc1 (stereo not drawn) ... 88
Cc1cc2cnc(Nc3ccc(N4CCC5(CCN(C)CC5)CC4)cc3)nc2n1-c1cccc(N=S(C)(C)=O)n1 ... 0.69
CC(C)n1c(=O)c2cnc(Nc3ccc4c(c3)CCNC4)nc2n1-c1ccc(C#N)cc1 ... 8
CC1(C)CNCc2cc(Nc3ncc4c(n3)SCN(c3c(Cl)cccc3Cl)C4=O)ccc21 ... 142
O=C1c2cnc(Nc3ccc4c(c3)CNCC4)nc2OCN1c1c(Cl)cccc1Cl ... 35
CN1CCN(c2ccc(Nc3ncc4c(n3)SCN(c3c(Cl)cccc3Cl)C4=O)cc2)CC1 ... 561
CC(C)n1c(=O)c2cnc(Nc3ccc4c(c3)CCNC4)nc2n1-c1cc(C(C)(C)C)ccn1 ... 217
O=C1c2cnc(Nc3ccc(N4CCNC[C@H]4CO)cc3)nc2OCN1c1c(Cl)cccc1Cl ... 176
Cc1cc2cnc(Nc3ccc(N4CCN(CCN(C)C)CC4)cc3)nc2n1-c1cccc(N=S(C)(C)=O)n1 ... 0.6
CC(C)(F)c1nc(-n2c3nc(Nc4ccc5c(c4)CCNC5(C)C)ncc3c(=O)n2C2CC2)ccc1F ... 5

1. CC(C)n1c(=O)c2cnc(Nc3ccc4c(c3)CCNC4)nc2n1-c1csc(N2CCOCC2)n1
2. O=C1CNCCN1c1ccc(Nc2ncc3c(n2)OCN(c2c(Cl)cccc2Cl)C3=O)cc1
3. CC(C)n1c(=O)c2cnc(Nc3ccc4c(c3)CCNC4)nc2n1-c1ccc(F)c(C(C)(C)O)c1
Input: Please list these molecules in decreasing order of IC50. Ranked list of labels, please, in the requested order.
Output: 2, 3, 1

a. CC(C)n1c(=O)c2cnc(Nc3ccc4c(c3)CCNC4(C)C)nc2n1-c1cccc(C2(C#N)CC2)n1
b. CC(C)n1c(=O)c2cnc(Nc3ccc4c(c3)CNCC4)nc2n1-c1cccc(C(C)(C)C#N)n1
c. O=c1c2cnc(Nc3ccc4c(c3)CCNC4)nc2n(-c2cccc(C3(CO)CC3)n2)n1CC(F)(F)F
Input: # rank by IC50, ascending (min first) Ranked list of labels, please, in the requested order.
Output: c, b, a

---

Listing of IC50 toward Wee1-like protein kinase (Homo sapiens), each taken from a published source.

CCn1c(=O)c2cnc(Nc3ccc4c(c3)CNCC4)nc2n1-c1cccc(OC)n1 ... 0.025 µM
CC(C)n1c(=O)c2cnc(Nc3ccc4c(c3)CNCC4)nc2n1-c1cccc(C(C)(C)C)c1 ... 0.001 µM
CN1CCN(Cc2ccc(Nc3ncc4c(n3)N(C)CN(c3c(Cl)cccc3Cl)C4=O)cc2)CC1 ... 0.01 to 0.1 µM
COc1cc(Nc2ncc3cnn(-c4cccc(N=S(C)(C)=O)n4)c3n2)ccc1N1CCN(C)CC1 ... 0.001 to 0.01 µM

Input: Supply measured IC50 of `CCn1c(=O)c2cnc(Nc3ccc4c(c3)CNCC4)nc2n1-c1cccc(C(F)(F)F)n1` in your reply.
Output: 0.044 µM

Input: Supply measured IC50 of `C=CCn1c(=O)c2cnc(Nc3ccc4c(c3)CCN(C3COC3)C4)nc2n1-c1cccc(C(C)(C)O)n1` in your reply.
Output: < 0.01 µM

Input: Supply measured IC50 of `COC[C@@H]1CNCCN1c1ccc(Nc2ncc3c(n2)N(C)CN(c2c(Cl)cccc2Cl)C3=O)cc1` in your reply.
Output: 0.01 to 0.1 µM

Input: Supply measured IC50 of `CNCc1cc(Nc2ncc3c(n2)N(C)CN(c2c(Cl)cccc2Cl)C3=O)ccc1N1CCCCC1` in your reply.
Output: 0.01 to 0.1 µM

---

Listing of pIC50 toward Wee1-like protein kinase (Homo sapiens, UniProt P30291), each taken from a published source.
pIC50: −log10 of the molar value.
MEASUREMENT_NAME: pIC50

These recorded examples may help you get a feel for the data.
O=C1c2cnc(Nc3ccc(N4CCN(CCO)CC4)cc3)nc2OCN1c1c(Cl)cccc1Cl ... 6.63
COCCn1c(=O)c2cnc(Nc3ccc4c(c3)CNCC4)nc2n1-c1cccc(C(C)(C)C)n1 ... 8.10
CC(C)(C)c1csc(-n2c3nc(Nc4ccc5c(c4)CNCC5)ncc3c(=O)n2C2CC2)n1 ... 8.22
CN1CCN(c2ccc(Nc3ncc4cc(C5CC5)n(-c5cccc(C(C)(C)O)n5)c4n3)cc2)CC1 ... 9.01
CC(C)n1c(=O)c2cnc(Nc3ccc4c(c3)CNCC4)nc2n1-c1cccc(C2(CO)CC2)n1 ... 8.40
COc1cc(Nc2ncc3c(n2)OCN(c2c(Cl)cccc2Cl)C3=O)ccc1C1CCNCC1 ... 7.55

1. C=CCn1c(=O)c2cnc(Nc3ccc(C4CCC(N5CCC5)CC4)cc3)nc2n1-c1cccc(C2(O)COC2)n1 (single isomer, unassigned)
2. CCN1CCN(c2ccc(Nc3ncc4c(n3)OCN(c3c(Cl)cccc3Cl)C4=O)cc2)CC1
Input: Returns: the argument ( 1 or 2 ) having the larger pIC50. Returns: label corresponding to the selected item.
Output: 1

---

Listing of IC50 toward Wee1-like protein kinase (Homo sapiens, UniProt P30291), each taken from a published source.
MEASUREMENT_NAME: IC50 (nM)

A. CC(C)(CF)c1cccc(-n2c3nc(Nc4ccc5c(c4)CCNC5(C)C)ncc3c(=O)n2C2CC2)n1
B. CCN(CC)CCOc1ccc(Nc2ncc3c(n2)OCN(c2c(Cl)cccc2Cl)C3=O)cc1
C. CC(C)n1c(=O)c2cnc(Nc3ccc4c(c3)CNCC4)nc2n1-c1ccc(F)cc1
D. CC(C)n1c(=O)c2cnc(Nc3ccc4c(c3)CNCC4)nc2n1-c1cccc(C2(C#N)CC2)n1
Input: Order field: IC50 | Direction: descending (largest first) Ranked list of labels, please, in the requested order.
Output: B, C, A, D

---

Listing of IC50 toward UniProt P30291, each taken from a published source.
MEASUREMENT_NAME: IC50 (nM)

These recorded examples may help you get a feel for the data.
O=C1c2cnc(Nc3ccc(N4CCC(O)CC4)cc3)nc2OCN1c1c(Cl)cccc1Cl ... 288
N#Cc1cc(Nc2ncc3c(n2)OCN(c2c(Cl)cccc2Cl)C3=O)ccc1N1CCNCC1 ... 106
C=CCn1c(=O)c2cnc(Nc3ccc4c(c3)CN(C(=O)CO)CC4(C)C)nc2n1-c1cccc(C(C)(C)O)n1 ... 3.1
CC(C)n1c(=O)c2cnc(Nc3ccc4c(c3)CNCC4(C)C)nc2n1-c1ccn(C2CC2)n1 ... 15
O=C1c2cnc(Nc3ccc(N4CCNCC4)cc3)nc2OCN1c1c(Cl)cccc1Cl ... 69
O=C1c2cnc(Nc3ccc4c(c3)NCCC4)nc2OCN1c1c(Cl)cccc1Cl ... 501
CN1CCN(C2CCN(c3ccc(Nc4ncc5c(F)c(C6CC6)n(-c6cccc(N=S(C)(C)=O)n6)c5n4)cc3F)CC2)CC1 ... 0.97
CCCc1cc2cnc(Nc3ccc(N4CCN(C)CC4)cc3)nc2n1-c1cccc(N=S(C)(C)=O)n1 ... 0.92
CC(C)N1CCc2ccc(Nc3ncc4c(n3)OCN(c3c(Cl)cccc3Cl)C4=O)cc2C1 ... 21
O=C1c2cnc(Nc3ccc(N4CCNCC4)c(Cl)c3)nc2OCN1c1c(Cl)cccc1Cl ... 20

I. C=CCn1c(=O)c2cnc(Nc3ccc(C4CCC(NC(=N)N)CC4)cc3)nc2n1-c1cccc(C(C)(C)O)n1 (stereo not drawn)
II. CN1CCN(c2ccc(Nc3ncc4c(F)c(C5CC5)n(-c5cccc(N=S(C)(C)=O)n5)c4n3)cc2)C(CO)C1 (stereo not drawn)
III. CC1Oc2nc(Nc3ccc(N4CCNCC4)c(CO)c3)ncc2C(=O)N1c1c(Cl)cccc1Cl (stereo not drawn)
Input: # rank by IC50, ascending (min first) Ranked list of labels, please, in the requested order.
Output: II, I, III
(II: 1.3 nM, I: 3.45 nM, III: 123 nM)

a. CC1(C)CNCc2cc(Nc3ncc4c(n3)SCN(c3c(F)cccc3Cl)C4=O)ccc21
b. O=C1c2cnc(Nc3ccc4c(c3)CCNC4)nc2SCN1c1c(Cl)cccc1Cl
Input: Lab note: check whether a or b has the lower measured IC50. Returns: label corresponding to the selected item.
Output: a

---

Listing of IC50 toward Wee1-like protein kinase (Homo sapiens), each taken from a published source.
MEASUREMENT_NAME: IC50 (nM)

These recorded examples may help you get a feel for the data.
CCn1c(=O)c2cnc(Nc3ccc4c(c3)CC(N(C)C)CC4)nc2n1-c1cccc(C(C)(C)O)n1 (stereo not shown) ... 20
CC(C)(C)c1cc(-n2c3nc(Nc4ccc5c(c4)CNCC5)ncc3c(=O)n2C2CC2)ccn1 ... 30

1. CCc1cc2cnc(Nc3ccc(N4CCN(CCN(C)C)CC4)cc3)nc2n1-c1cccc(N=S(C)(C)=O)n1
2. CCn1c(=O)c2cnc(Nc3ccc4c(c3)CCNC4)nc2n1-c1cccc(C(C)(C)C#N)n1
3. CN1Cc2cc(Nc3ncc4c(n3)OCN(c3c(Cl)cccc3Cl)C4=O)ccc2C(C)(C)C1
4. CC1CN(c2ccc(Nc3ncc4c(n3)OCN(c3c(Cl)cccc3Cl)C4=O)cc2Cl)CCN1 (stereo not shown)
5. CN(C)CCN1CCN(c2ccc(Nc3ncc4cc(C5CC5)n(-c5cccc(N=S(C)(C)=O)n5)c4n3)cc2)CC1
Input: Please list these compounds in decreasing order of IC50. Ranked list of labels, please, in the requested order.
Output: 4, 3, 2, 1, 5
(4: 127 nM, 3: 9 nM, 2: 3 nM, 1: 1.02 nM, 5: 0.61 nM)
